Record form. Attribute: residual activity. Fill in for each entry.
- testedOn: Tyrosinase (Mus musculus) (UniProt P11344)
- Sequence (whole entry): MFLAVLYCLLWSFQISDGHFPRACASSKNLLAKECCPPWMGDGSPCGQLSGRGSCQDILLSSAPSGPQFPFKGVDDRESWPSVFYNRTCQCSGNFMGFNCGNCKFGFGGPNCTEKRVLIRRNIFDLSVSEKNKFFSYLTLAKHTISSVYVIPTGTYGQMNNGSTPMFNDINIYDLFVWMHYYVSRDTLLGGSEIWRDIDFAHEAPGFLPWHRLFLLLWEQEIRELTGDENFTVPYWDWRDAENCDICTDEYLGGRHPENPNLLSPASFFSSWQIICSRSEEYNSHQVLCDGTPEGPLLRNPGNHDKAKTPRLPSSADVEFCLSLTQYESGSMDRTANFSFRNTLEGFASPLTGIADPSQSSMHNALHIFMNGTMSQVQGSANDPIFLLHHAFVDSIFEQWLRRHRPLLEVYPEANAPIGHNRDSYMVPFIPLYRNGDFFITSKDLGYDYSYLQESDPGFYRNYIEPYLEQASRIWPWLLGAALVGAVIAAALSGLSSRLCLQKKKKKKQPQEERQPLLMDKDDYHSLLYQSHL
- assayOverview: Inhibition of tyrosinase in mouse B16F10 cells assessed as remaining melanin production at 20 uM relative to control
- runParameters: B16-F10

Field: residual activity (Tyrosinase (Mus musculus) (UniProt P11344)). Entry: NC(=S)c1ccccn1 80%

Quick check: residual activity on Tyrosinase (Mus musculus) (UniProt P11344), item NC(=S)c1cccnc1 ? 104%

Param readout= residual activity; system= Tyrosinase (Mus musculus) (UniProt P11344); entry= NNC(=O)c1ccncc1 ; returns value. 100%

Give residual activity (Tyrosinase (Mus musculus) (UniProt P11344)) of the following compound: NC(=S)c1ccccc1 93%

// lookup residual activity | system=Tyrosinase (Mus musculus) (UniProt P11344) | key= CCCc1cc(C(N)=S)ccn1 [PROTIONAMIDE] 103%

Provide value of residual activity for this record tested with Tyrosinase (Mus musculus) (UniProt P11344): CCc1cc(C(N)=S)ccn1 [ETHIONAMIDE] 104%

Query for Tyrosinase (Mus musculus) (UniProt P11344): what residual activity does the record show for CC(=O)Nc1ccccc1 [ACETANILIDE] ? 103%

What reported residual activity corresponds to CC(=S)Nc1ccccc1 on Tyrosinase (Mus musculus) (UniProt P11344)? 75%

Please tell me: residual activity of NC(=S)Nc1ccccc1 , system Tyrosinase (Mus musculus) (UniProt P11344)? 55%

Kindly state the measured residual activity obtained for NC(=S)c1ccncc1 with Tyrosinase (Mus musculus) (UniProt P11344). 103%
